# Measured target: T1, cynomolgus monkey EL (cynomolgus monkey)
# T1 construct: Heparin extract; also called cynomolgus EL; Cynomolgus EL
# Run description: Biacore; EL captured by anti-C2-tag Ab; bivalent fit
# reported koff; entries follow

# Binder, koff [s⁻¹]
measured = [
    ("16B3 (antibody, mouse IgG2a, V domains shown, mouse IgG2a from hybridoma; also called 16B3 (mouse mAb)) VH: DVKLVESGGGLVQPGGSLKLSCTASGFTFSGYTMSWVRQTPEKRLELVAEISFARDRAFYPDTVKGRFTISRDNAKNTLYLQMSSLKSEDTAMYYCTRLGGRNHDYWYFDVWGTGTTVTVSS VL: DIVLTQSPTSLAVSPGQRATISCRASESVEYYGTSLMQWYQQKPGQRPQLLIYAASNVESGVPARFSGSGSGTDFSLNIHPVEEDDIAVYFCQQSWKVPFTFGSGTKLEIK", "8.9e-05"),
    ("55A1 (antibody, mouse IgG2a, V domains shown, mouse IgG2a from hybridoma; also called 55A1 (mouse mAb)) VH: QIHLVQSGPELKKPGETVKISCKASGYTFTNYGMNWVKQAPGKGLKWMGWINTYSGVPTYAGDFKGRFAFSLETSASTAYLQINNLKNEDTATYFCARRGYYGRRYFDVWGTGTTVTVSS VL: DIVLTQSPASLAVSLGQRATISCKASQSVDYDVDSYMHWYQQKPGQPPKLLIYAASNLASGIPARFSGGGSGTDFTLNIHPVEEEDVATYYCQQTIEDPPTFGGGTKLEIK", 0.00044),
    ("14A1 (antibody, mouse IgG1, V domains shown, mouse IgG1 from hybridoma) VH: QIQLVQSGPELKKPGETVKISCKASGYTFTNYGMNWVKQAPGKGLKWMGWINTYSGVPTYADDFKGRFAFSLETSASTAYLQINNFKNEDTATYFCARFSYYGRHYFDYWGQGTALTASS VL: DIVLTQSPASLAVSLGQRATISCKASQSVDYDGDSYMNWYQQKPGQPPKLLIYAASNLKSGIPARFSGSGSGTDFTLNIHPVEEEDAATYYCQQTTDDPPWTFGGGTKLEIK", 0.00081),
]
